# target-desc: VR1/TRPV1 receptor (Homo sapiens, UniProt Q8NER1)
# Sequence (Q8NER1 whole entry): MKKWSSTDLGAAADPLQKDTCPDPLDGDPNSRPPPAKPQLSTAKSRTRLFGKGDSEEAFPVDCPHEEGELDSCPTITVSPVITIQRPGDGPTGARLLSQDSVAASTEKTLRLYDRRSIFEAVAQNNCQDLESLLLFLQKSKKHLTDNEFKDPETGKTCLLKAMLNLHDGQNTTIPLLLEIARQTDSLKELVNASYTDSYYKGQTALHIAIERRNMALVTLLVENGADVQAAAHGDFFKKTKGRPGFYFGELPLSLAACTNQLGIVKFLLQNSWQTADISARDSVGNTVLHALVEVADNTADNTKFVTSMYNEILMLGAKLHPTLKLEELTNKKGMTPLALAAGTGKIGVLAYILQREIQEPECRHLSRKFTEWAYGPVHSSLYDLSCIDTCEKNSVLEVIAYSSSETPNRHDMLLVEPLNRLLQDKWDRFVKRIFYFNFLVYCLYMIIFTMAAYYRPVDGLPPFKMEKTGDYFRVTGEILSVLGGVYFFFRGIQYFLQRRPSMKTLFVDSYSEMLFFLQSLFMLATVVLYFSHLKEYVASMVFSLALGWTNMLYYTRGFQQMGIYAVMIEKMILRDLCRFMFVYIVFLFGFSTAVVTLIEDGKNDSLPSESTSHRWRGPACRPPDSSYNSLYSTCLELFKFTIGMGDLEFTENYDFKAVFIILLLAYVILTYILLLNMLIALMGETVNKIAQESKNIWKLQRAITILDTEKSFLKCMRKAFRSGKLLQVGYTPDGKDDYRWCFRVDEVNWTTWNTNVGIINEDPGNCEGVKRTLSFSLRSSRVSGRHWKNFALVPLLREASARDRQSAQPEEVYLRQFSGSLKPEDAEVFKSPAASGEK
# method-description: IC50 (human) after pH stimulus
# Assay type: cell-based
# cond: table 4
Rule: measured IC50 below 0.3 µM gets Yes; anything equal to or greater than 0.3 µM gets No.

compound	qualitative-label
CC(C(=O)NCc1ccc(C(F)(F)F)nc1OCCOc1ccccc1)c1ccc(NS(C)(=O)=O)c(F)c1 (stereo not drawn)	Yes
CC(C(=O)NCc1ccc(C(F)(F)F)nc1N1CCC2(CC1)CC(c1ccccc1)=NO2)c1ccc(NS(C)(=O)=O)c(F)c1 (stereo not drawn)	Yes
CC(C(=O)NCc1ccc(C(C)(C)C)cc1OC1CCCCC1)c1ccc(NS(C)(=O)=O)c(F)c1 (stereo not drawn)	No
CC(C(=O)NCc1ccc(C(F)(F)F)nc1OC1CCC(C(F)(F)F)CC1)c1ccc(NS(C)(=O)=O)c(F)c1 (stereo not drawn) [Example 339]	Yes
CC(C(=O)NCc1ccc(C(F)(F)F)nc1CCc1ccccc1)c1ccc(NS(C)(=O)=O)c(F)c1 (stereo not drawn)	Yes
CC(C(=O)NCc1ccc(C(F)(F)F)nc1N1CCCCCCC1)c1ccc(NS(C)(=O)=O)c(F)c1 (stereo not drawn)	Yes
CC(C)COc1nc(C(F)(F)F)ccc1CNC(=O)[C@H](C)c1ccc(NS(C)(=O)=O)c(F)c1	No
CC(C(=O)NCc1ccc(C(F)(F)F)nc1OC1CCC(C(F)(F)F)CC1)c1ccc(NS(C)(=O)=O)c(F)c1 (stereo not drawn) [Example 340]	Yes
CC(C(=O)NCc1ccc(C(F)(F)Cl)nc1OC1CCCC1)c1ccc(NS(C)(=O)=O)c(F)c1 (stereo not drawn)	Yes
CCCCCOc1nc(C(F)(F)F)ccc1CNC(=O)C(C)c1ccc(NS(C)(=O)=O)c(F)c1 (stereo not drawn) [Example 225]	Yes
Cc1cc(C(C)C(=O)NCc2ccc(C(F)(F)F)nc2N2CCC(C(F)(F)F)CC2)ccc1NS(C)(=O)=O (stereo not drawn)	Yes
CC(C(=O)NCc1ccc(C(F)(F)F)nc1-n1ccnc1)c1ccc(NS(C)(=O)=O)c(F)c1 (stereo not drawn)	No
CCCCOc1nc(C(F)(F)Cl)ccc1CNC(=O)C(C)c1ccc(NS(C)(=O)=O)c(F)c1 (stereo not drawn)	Yes
CC(C(=O)NCc1ccc(C(F)(F)F)nc1N1CCN(c2ccccc2F)CC1)c1ccc(NS(C)(=O)=O)c(F)c1 (stereo not drawn)	Yes
